Test: probe aLefty1 binding on compound microarray – biochemical, small-molecule microarray, 635/667 nm fluorescence, primary screen (AID 1153);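 further: score merges spot fluorescence with signal-to-noise ratio from the scanned slide images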
Details: higher = more signal
READOUT KIND: composite z-score

Before answering, review these 6 worked examples.
>  <MOLECULE>
O=C1N(CCS(=O)(=O)c2ccccc2)c2ccccc2[C@@H]2OC(c3ccc(OCCCO)cc3)=N[C@]12Cc1ccccc1

>  <composite z-score>
-0.081

$$$$
>  <MOLECULE>
NC(=O)[C@@H]1[C@H]2C(=O)O[C@H](c3ccccc3)[C@H](c3ccccc3)N2[C@H](c2ccc(O)cc2)[C@@]12C(=O)Nc1ccc(C#CC3=CCCCC3)cc12

>  <composite z-score>
1.47

$$$$
>  <MOLECULE>
O=C1O[C@H](c2ccccc2)[C@H](c2ccccc2)N2[C@H]1[C@@H](C(=O)NC[C@H](O)c1ccccc1)[C@]1(C(=O)Nc3ccc(C#CC4=CCCCC4)cc31)[C@H]2c1ccccc1OCCO

>  <composite z-score>
0.199

$$$$
>  <MOLECULE>
C[C@H]1C2[C@H](Cc3ccccc3)NC(=O)[C@]23C(=O)NCC(=O)N2CCC[C@H]2C(=O)NC/C=C/CCC/C=C/C3[C@@H]2O[C@]12C (some centres not stated)

>  <composite z-score>
-0.103

$$$$
>  <MOLECULE>
C=C(CCCC)C(=O)CC[C@H](OC(=O)c1cccnc1)c1ccc(OCCO)cc1

>  <composite z-score>
-0.0316

$$$$
>  <MOLECULE>
CC(C)NC(=O)[C@@H]1c2ccccc2C(=O)N(C(C)C)[C@H]1c1ccc(CO)cc1

>  <composite z-score>
-0.228

$$$$

Switching to the query record.
Data request: Given C#CCN1[C@H](/C=C/C2CC2)[C@H](Cc2ccccc2)OC(=O)[C@@H]1Cc1ccccc1 , state its recorded composite z-score.
Data returned: -0.306

* * *

Target: Dihydroorotate dehydrogenase (quinone), mitochondrial (Plasmodium falciparum (isolate 3D7)) (UniProt Q08210)
Sequence (Q08210 whole entry, looked up): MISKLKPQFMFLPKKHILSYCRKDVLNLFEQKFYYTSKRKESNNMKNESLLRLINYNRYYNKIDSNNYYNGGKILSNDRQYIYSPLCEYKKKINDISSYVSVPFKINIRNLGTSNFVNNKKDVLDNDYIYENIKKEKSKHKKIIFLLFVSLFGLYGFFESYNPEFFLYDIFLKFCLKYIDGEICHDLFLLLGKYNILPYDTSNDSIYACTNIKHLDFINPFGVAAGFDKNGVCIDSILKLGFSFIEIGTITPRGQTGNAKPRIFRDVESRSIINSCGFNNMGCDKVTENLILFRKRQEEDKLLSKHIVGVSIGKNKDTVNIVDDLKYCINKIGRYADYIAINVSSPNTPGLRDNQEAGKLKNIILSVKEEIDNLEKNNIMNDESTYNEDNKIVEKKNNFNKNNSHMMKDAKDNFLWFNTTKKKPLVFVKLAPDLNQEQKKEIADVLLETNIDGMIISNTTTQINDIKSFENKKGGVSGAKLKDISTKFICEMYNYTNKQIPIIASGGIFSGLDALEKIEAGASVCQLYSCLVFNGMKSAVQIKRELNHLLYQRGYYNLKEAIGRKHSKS
Experiment: inhibition of P. falciparum DHODH – biochemical, C-terminal His tag, absorbance 600 nm, primary screen (AID 1175);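 further: recombinant parasite enzyme with a five histidine tag at its C terminus; test concentration not given here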
Settings: PfDHODH enzyme, DCIP absorbance 600 nm, called active from +8 up or from −8 down
Active and inactive are the calls of the source.
Please state which outcome applies, choosing from true = active, false = inactive

>  <COMPOUND>
CC(C)[Si](C#CCCCC#N)(Oc1ccccc1Br)C(C)C

>  <GROUP LABEL>
false

$$$$
>  <COMPOUND>
COCCOC(=O)N1C(=O)[C@@]2(c3cc(C#CC4(O)CCCCCC4)ccc31)[C@H](C(=O)Nc1nc3ccccc3s1)[C@H]1C(=O)O[C@H](c3ccccc3)[C@H](c3ccccc3)N1[C@@H]2c1ccccc1OCCO

>  <GROUP LABEL>
false

$$$$
>  <COMPOUND>
O=C1[C@H]2C=C(I)[C@H](C[C@@H]2OCCCCO)[C@@]12CO2

>  <GROUP LABEL>
false

$$$$
>  <COMPOUND>
CC(=O)Nc1cc(Br)ccc1C(=O)NCc1ccccc1

>  <GROUP LABEL>
false

$$$$
>  <COMPOUND>
C=CC[C@]1(C(=O)N2CCOCC2)N=C(c2ccc(OCCCO)cc2)O[C@H]1c1ccccc1N=[N+]=[N-]

>  <GROUP LABEL>
false

$$$$
>  <COMPOUND>
COc1ccccc1CN1C(=O)c2ccccc2[C@@H](C(=O)NCc2ccccc2)[C@@H]1c1ccc(CO)cc1

>  <GROUP LABEL>
false

$$$$

Data request: Test call for this compound, please: CC(c1ccccc1)C(O)C1C=CC2C(=O)N(C)C(=O)C2N1NC(=O)OC(C)(C)C (stereo unspecified)
Data returned: false

Data request: Can you check COc1ccc(C(O)C2C=CC3C(=O)N(C)C(=O)C3N2N(c2ccccc2)c2ccccc2)c2ccccc12 (stereo unspecified) next?
Data returned: false

Data request: Can you check CCOC(=O)C[C@H]1[C@H](OC(=O)c2ccc(C(=O)c3ccccc3)cc2)[C@@H](NC(=O)Cc2ccc(OC)cc2)c2cc(OCCCO)ccc2N1C(=O)c1ccc2ccccc2n1 next?
Data returned: false

Data request: Can you check C=CCC(OC(C)=O)[C@@H]1[C@@H](N(Cc2ccc(-c3cccc(C(F)(F)F)c3)o2)C(=O)c2cccc3ccccc23)c2cc(OCCCO)ccc2N1C(=O)Cc1ccc2ccccc2c1 (stereo partly specified) next?
Data returned: false

Data request: Can you check COCCOC(=O)N1C(=O)[C@@]2(c3cc(C#CC4(O)CCCCCC4)ccc31)[C@H](c1ccccc1OCCO)N1[C@H](c3ccccc3)[C@H](c3ccccc3)OC(=O)[C@H]1[C@@H]2C(=O)N1CCc2cc(OC)c(OC)cc2C1 next?
Data returned: false

Data request: Can you check CO[C@H]1O[C@H](CO)[C@@H](OC(=O)Nc2ccc(Oc3ccccc3)cc2)[C@H](OC(=O)Nc2ccc3c(c2)OCO3)[C@@H]1OC(=O)Nc1ccc2c(c1)OCO2 next?
Data returned: false
